Give measured MIC for each item. Keep answers brief.
- System: Pseudomonas aeruginosa
- procedureText: Anti-microbial activity against Pseudomonas aeruginosa PAO1 incubated for 20 hrs By CLSI based micro-dilution method
- Assay type: functional

Q: Form field - read-out: MIC; system: Pseudomonas aeruginosa; submitted item: "O=C(CCCCOc1cccc(F)c1)NNc1nc2ccccc2o1"
A: > 512 µg/mL

Q: Form field - read-out: MIC; system: Pseudomonas aeruginosa; submitted item: "O=C(NNc1nc2ccccc2s1)c1ccc(F)cc1"
A: > 512 µg/mL

Q: Form field - read-out: MIC; system: Pseudomonas aeruginosa; submitted item: "Cn1c(=NNC(=O)CCCCOc2ccc(F)cc2)sc2ccccc21"
A: > 512 µg/mL

Q: Form field - read-out: MIC; system: Pseudomonas aeruginosa; submitted item: CC[C@H]1OC(=O)[C@H](C)[C@@H](O[C@H]2C[C@@](C)(OC)[C@@H](O)[C@H](C)O2)[C@H](C)[C@@H](O[C@@H]2O[C@H](C)C[C@H](N(C)C)[C@H]2O)[C@](C)(OC)C[C@@H](C)C(=O)[C@H](C)[C@@H](O)[C@]1(C)O [CLARITHROMYCIN]
A: 256 µg/mL

Numbers sourced from ChEMBL document CHEMBL5543127.
